experiment: soluble fraction after stress (log2 fold change); higher = more stays soluble; pooled small domains, quantitative proteomics; conditions: stress: pH 4
measure: soluble fraction (log2)

> print(dat)
                               sequence.data                  measure  reported.value
 1  HMEDHMVVFGKGGRITRLPDKATVLEYLDAANFFASRSSVVKVNGKLASLDQTLRDGDSIEIVD  soluble fraction (log2)          -0.473
 2  HMEGDKEIPNVIGKSINDAKKILEQAGLKLGEVKKVNDSSVAKNVVLSTNPNAGTKVSAGDAVSITVAEG  soluble fraction (log2)           0.278
 3  HMNMSVVEKVIQQISNPGRDSLIPILQAVQEEEGFISRESVIEIGKALDLPASKIYGVATFYNQFR  soluble fraction (log2)          -0.543
 4  HMRAPEIEAARSDLDVGQTVQIVRHLHGNQYEVFYRGAQWQAEAVGSSGANDAQTAVITGKNGNILLIQI  soluble fraction (log2)          -0.297
 5  HMKKRDANSQGTRLILFYMLQRLHTEYKLQGFVTYNQRRSFREIYDAYHALGGNGFGTAMWEEVKELDLK  soluble fraction (log2)         -0.0682
 6  HMVKLQATPSQRKTLDELYVQLKKLEPTAKEDLSLLRRLENSHLVSKQEAQGLISKAIGRVGALAVEQQP  soluble fraction (log2)          0.0541
 7  HMGTPEQVVVSSVLKETNEIVLKWPADGFMAKYKMDNLNLNFEPVHGQGVMGYFIGSRLIKLELV  soluble fraction (log2)           -0.33
 8  HMYSVVGKKGIVIEDINYSTGTGQIKSEGEVWSAKTNEQINIPKGTEIEIESIDGVKVIVKPL  soluble fraction (log2)           0.221
 9  HMQAKDVEIPNFVGKTLAEANADNKDNFNFVVESKYDASKELGVILEQEPAADSKLVKSGSQITLKV  soluble fraction (log2)          0.0557
10  HMGSIRDIIVQYLSKFDDPQPAAKIVEYVQQYRDTTESSIRSSMGSGDQFVQFSGGLYGLKDKTYAAWYSI  soluble fraction (log2)          -0.383
11  HMDVDKQLDQLLAAMIPDKSLRQTIKTKAFNELVDNELADKDISSWTKQTMDVFMTRAEDMFGAM  soluble fraction (log2)           -1.43
12  HMADYSMDDNAWNAKKADIDEWFEANPDFSANKAITDGLFSIGDSQVEMRKRYWASIAGVFAGLPNSPIG  soluble fraction (log2)           -1.78
13  HMGQKMLTIELQEKVNKMPDNLASYDLKLSADGMSLIYKYSLKSERTGITALLQELKNAGLVMRDLKTEQ  soluble fraction (log2)          -0.302
14  HMPLLSEWDAALEELWAKLGDVPMDPETERMDAPFLGFPAGTPREDIWHWFDERHSKGVAHLLYG  soluble fraction (log2)           -1.78
15  HMALPDSEKRQWLVDEVNERGLKLPDDVLEYLFARVGRSQAHLVDVIEKLDFESLAQSRKLTIPFVREVLK  soluble fraction (log2)          -0.753
16  HMETLKEVPNLKGQQQEVAKQLLINAGLGVGKINIIEDSTIADGEVVTQSILPNTKVKKDTYVGFTVNKAP  soluble fraction (log2)            0.22
17  HMYLELVTKEGGSFDEPDYWGRRKLAYEIAGKTEGNYVVVKYTAEPATSDELDRVLNLNESVIRTKILRK  soluble fraction (log2)          -0.461
18  HMKTTKESLLEYIQREVFTDSIHKEGLSTNEIADAFQIQRSNVSSLLNTLVKEGKLEKTTGRPVLYRIPEK  soluble fraction (log2)          0.0777
19  HMERLKKYLDDVRTFLPGTNPKKVDEILREIESHVLERAEREHGEVNDNAVAMSIKEYGSPEEVAARYYEG  soluble fraction (log2)           -0.29
20  HMGIRDIHITVNGESLKLSKKQNYIFVDIFDFYPFDLSILGGSKLITTINGEQAEFTSPLKDGDVVELYWK  soluble fraction (log2)          -0.977
21  HMEPLIRTLEEQIAEKIKNYRKGTRVYDAEHVDRWISQLPEEERMVVLTETNRLLEQNYVDQAKLME  soluble fraction (log2)          -0.803
22  HMETKIKFQIQTLDELNIRKVADWDAKAITTVKKGQILDVVDTVAAKNGSTPMYRLESGLYITASPKYVKK  soluble fraction (log2)            0.22
23  HMLENYEGFKQKILKLTGIDLSSYKERQMRRRIDSLIHRNNYDDYDEYFKALTQNSNLYDEFINYLTI  soluble fraction (log2)          -0.424
24  HMLTKGDRQSIRDSIIYMVGNAPRTLDYIVAESRYSEEDVIEAVRSLLSSHILSIDDSDMISLTRK  soluble fraction (log2)          -0.362
25  HMSEITQTLSMIGKEVTLEIPDEKDKTKTTEVKGIVTEASFKDGTGKVKVNGEYYSIAYITSIRDT  soluble fraction (log2)          -0.545
26  HMNSNTIIINDIMTKIGKEVKNFTEIYSIILKALAEHGEEYVRTNTEYALKNFTGNFDIFLEQLLLK  soluble fraction (log2)          -0.219
27  HMTNIDIEKSIKNTITANYDDVLNYHNEDDNKTFASGDSRYSFDYDEKTKTLIVFTNSKVDAVFVDGIKKK  soluble fraction (log2)           0.255
28  HMTYSEEEIERDLYVRGTLYQIGDLVENKIDGTSGEIVRRGPNYVQYSDGENFYKAFLHSIQEV  soluble fraction (log2)           -1.45
29  HMREGRERRLSQLLSYLRTHHILTRSEYVKLTGLSPTAASSELKTFVTAGHIVRKGIASHSTYRLPH  soluble fraction (log2)         0.00826
30  HMNIAEIGQKVAQQRVALGISQERLAKLSDLSRSTIHHLEHGTLHEIGAAKLFKLLSLLDIQLK  soluble fraction (log2)           0.159
31  HMPQKSDLTMEEYNKLGLAGGSGSRKLREQVGIRLSVGYGNSKQFYNRLHTFGISLDELKTAVEEVKNG  soluble fraction (log2)           0.295
32  HMHNSQTIIDNIKRIANEQNISLSKLAVISGLGKNTITSMTAKTNIKIETLTAIAKSLNVSIHDLTGE  soluble fraction (log2)          0.0739
33  HMTVPMKILILEDEQRNAMRLIRLLNDIDTTFIIEGPLTNIKEAVDFFQSGKTTDLILADIRL  soluble fraction (log2)          -0.489
